Cited source for all entries: patent EP4772535A1

EC50: recorded values
# study-system: T1, ROR1 naturally expressed on human tumor cell lines (A549, Jeko-1, SW620, PA-1) (human, UniProt Q01973 30-937)
# T1 construct: whole, on cells; also called cells expressing ROR1
# T1 sequence (Q01973 30-937): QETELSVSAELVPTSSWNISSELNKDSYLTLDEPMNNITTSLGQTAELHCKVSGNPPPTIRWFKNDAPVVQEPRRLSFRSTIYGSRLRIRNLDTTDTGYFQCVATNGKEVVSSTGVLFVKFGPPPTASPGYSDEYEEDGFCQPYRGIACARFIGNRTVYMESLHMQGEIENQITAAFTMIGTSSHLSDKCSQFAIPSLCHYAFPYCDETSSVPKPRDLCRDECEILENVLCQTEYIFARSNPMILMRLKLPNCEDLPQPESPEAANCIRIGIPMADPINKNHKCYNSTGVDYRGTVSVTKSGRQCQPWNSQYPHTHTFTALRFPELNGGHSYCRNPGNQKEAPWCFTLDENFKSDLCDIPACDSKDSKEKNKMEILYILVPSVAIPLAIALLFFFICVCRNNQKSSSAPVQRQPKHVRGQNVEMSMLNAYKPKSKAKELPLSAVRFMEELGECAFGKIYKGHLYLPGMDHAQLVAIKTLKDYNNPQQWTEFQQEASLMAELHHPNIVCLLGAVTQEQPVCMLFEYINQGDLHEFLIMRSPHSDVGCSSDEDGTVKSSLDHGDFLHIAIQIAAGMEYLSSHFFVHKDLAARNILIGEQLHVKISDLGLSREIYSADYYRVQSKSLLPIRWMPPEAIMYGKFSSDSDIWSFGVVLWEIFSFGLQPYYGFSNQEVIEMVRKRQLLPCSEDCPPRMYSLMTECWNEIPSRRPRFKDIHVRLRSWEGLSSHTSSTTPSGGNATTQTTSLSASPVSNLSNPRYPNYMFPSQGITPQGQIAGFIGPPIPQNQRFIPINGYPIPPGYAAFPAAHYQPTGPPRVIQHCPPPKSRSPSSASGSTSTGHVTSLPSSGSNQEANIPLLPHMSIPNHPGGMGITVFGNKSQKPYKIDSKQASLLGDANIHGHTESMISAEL
# experimental-details: FACS on A549 cells naturally expressing ROR1
assay-endpoint: EC50 (pM)

binder	assay-endpoint	unit-of-measure	readout-value
UC-961 (antibody, V domains shown) VH: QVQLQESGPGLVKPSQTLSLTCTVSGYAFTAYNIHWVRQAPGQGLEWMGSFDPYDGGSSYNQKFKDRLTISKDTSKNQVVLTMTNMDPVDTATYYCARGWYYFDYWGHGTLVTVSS VL: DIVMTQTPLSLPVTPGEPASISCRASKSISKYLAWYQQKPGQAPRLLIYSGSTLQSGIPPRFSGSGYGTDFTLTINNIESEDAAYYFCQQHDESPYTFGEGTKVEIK	EC50	pM	35
ch135A2B10 (antibody, human IgG1, kappa, V domains shown, also called chimeric antibody of m135A2B10) VH: DVKLVESGGGLVTPEGSLKLSCAASGFAFSTYGMAWVRQTPEKRLEWVASIHKGGFSTYYPDNVKGRFTISRDNDKNTLYLQMSSLKSEDTAMYYCIRHDWDGAMDYWGQGTSVTVSS VL: DIVLTQSPSSMYASLGERVTITCKASQDINSYLNWFQQKPGKSPKTLIYRANRLVDGVPSRFSGSGSGQDYSLTISSLEYEDLGIYYCLQFDEFPYTFGGGTKLEIKR	EC50	pM	94
ch29H5D8 (antibody, human IgG1, kappa, V domains shown, also called chimeric antibody of m29H5D8) VH: EVQLQQSGAELARPGASVKLSCKASGYTFTNYGISWVKQRTGQGLEWIGEIYPRSVNTYYSAKFKGKATLTADKSSSTAYMELRSLTSEDSAVYFCARHYYGSSLDYWGQGTTLTVSS VL: DIVLTQSPASLSVATGEKVTIRCITSSDIEDDMNWYQQKPGEPPKLLISEGNSLRPGVPSRFSSSGYGTDFVFTIENTLSEDVADYYCLQSDNIFTFGSGTKLEIKR	EC50	pM	16
ch3G9B1 (antibody, human IgG1, kappa, V domains shown, also called chimeric antibody of m3G9B1) VH: QVQLQQSGTELARPGASVKLSCKASGYTFTSYGITWVKQRTGQGLEWIGEIYPRSGNTYFNEKFKGKATLTADKSSSTAYMELRSLTSEDSAVYFCARDRTGTGVDDYWGQGTTLTVSS VL: DIVLTQSPASLSMAIGEKVTIRCITNTDIDDDMSWYQQKPGEPPNLLISEGNTLRPGVPSRFSSSGYGRDFVFTIENMLSEDVADYYCLQSNNLPYTFGGGTKLEIKR	EC50	pM	30
